Please find below Ki measurements for Urokinase-type plasminogen activator (Homo sapiens, UniProt P00749), combined from several publications.
Write the number in µM without appending the unit.

Please review the following examples before continuing.
COc1ccc(OC)c(Nc2nc(-c3cc(C(=N)N)sc3SC)cs2)c1    0.66
CSc1sc(C(=N)N)cc1-c1nc(-c2csc3ccccc23)cs1    141
CN(C)Cc1ccccc1NC(=O)OCC(Oc1cc(F)cc2sc(C(=N)N)cc12)c1ccccc1 (stereo not drawn)    0.94

Challenge: # lookup: Ki of CSc1sc(C(=N)N)cc1-c1csc(Nc2cccc(OCC(N)=O)c2)n1
Response given: 1.02

Challenge: Item: CCC(C)(C)C(NC(=O)[C@@H]1CCCN1C(=O)[C@H](Cc1ccccc1)NC(=O)OCc1ccccc1)B1O[C@@H]2CC3CC(C3(C)C)[C@]2(C)O1 (stereo partly drawn)
Response given: 15

Challenge: Item: CSc1sc(C(=N)N)cc1-c1nc(-c2ccc(-c3ccccc3)cc2)cs1
Response given: 1740

Challenge: Item: COC(=O)C(Oc1cccc2sc(C(=N)N)cc12)c1ccccc1 (stereo not drawn)
Response given: 0.5

Challenge: Item: N=C(N)c1ccc2cc(C(=O)Nc3ccc4c(c3)CCNC4)ccc2c1
Response given: 0.0158

Challenge: Item: N=C(N)c1cccc(CC(NS(=O)(=O)c2cccc(-c3cccnc3)c2)C(=O)N2CCC(CCN)CC2)c1 (racemic)
Response given: 11

Challenge: Item: N=C(N)NCCC(=O)Nc1cccc(S(=O)(=O)N[C@@H](Cc2cccc(C(=N)N)c2)C(=O)N2CCC(CCNC(=N)N)CC2)c1
Response given: 1.2

Challenge: Item: N=C(N)Nc1ccccn1
Response given: 29

Challenge: Item: N=C(N)c1ccc2cc(C(=O)Nc3ccc4c(c3)CCC4)ccc2c1
Response given: 0.398

Challenge: Item: COc1cccc(Nc2nc(-c3cc(C(=N)N)sc3SC)cs2)c1
Response given: 0.28

Challenge: Item: CSc1sc(C(=N)N)cc1-c1nc(C2CCCCC2)cs1
Response given: 641

Challenge: Item: COC(=O)CCCC1CCN(C(=O)[C@H](Cc2cccc(C(=N)N)c2)NS(=O)(=O)c2cccc(NC(=O)CCN)c2)CC1
Response given: 2.5

Challenge: Item: CC1CCN(C(=O)C(Cc2cccc(C(=N)N)c2)NS(=O)(=O)c2ccc3c(c2)C(=O)c2ccccc2C3=O)CC1 (stereo not drawn)
Response given: 40

----------
Please find below pKi measurements for Urokinase-type plasminogen activator (Homo sapiens, UniProt P00749), combined from several publications.
pKi here is simply -log10 of the concentration when that concentration is written in mol/L.

Please review the following examples before continuing.
CC(C)C1=NCCc2ccc(NC(=O)c3cc(Nc4ncccn4)c4cc(C(=N)N)ccc4c3)cc21    8.80
NC(N)=Nc1ncc(Cl)cc1OCC(=O)NCc1ccccc1    4.79
N=C(N)c1cc2c(OC(COC(=O)Nc3ccc(F)cc3F)c3ccccc3)cccc2s1 (stereo not given)    6.24

// moving on: another record for pKi
Challenge: # lookup: pKi of CN1CCC(NS(=O)(=O)c2ccc3c(Cl)cnc(N=C(N)N)c3c2)(C(=O)O)CC1
Response given: 7.96

----------
pKi: −log10 of the molar value.
Please find below pKi measurements for Urokinase-type plasminogen activator (Homo sapiens, UniProt P00749), combined from several publications.

O=C(CNC(=O)[C@@H](CCc1cccc[n+]1[O-])NS(=O)(=O)Cc1ccccc1)NCc1cccc(Cl)c1    < 5.30
CCCS(=O)(=O)NC(CCc1cccc[n+]1[O-])C(=O)NCC(=O)NCc1cc(Cl)ccc1CN (stereo not drawn)    < 5.30
Cc1ccc(O)c(-c2cc3cc(C(=N)N)ccc3[nH]2)c1    4.91
NC[C@H]1CC[C@H](C(=O)N[C@@H](Cc2ccccc2)c2cc(-c3ccc4[nH]nc(O)c4c3)ccn2)CC1    < 4.85
NCc1ccc(Cl)cc1CNC(=O)CNC(=O)C(CCc1cccc[n+]1[O-])NC(=O)CC(=O)O (stereo not drawn)    < 5.30

Challenge: # lookup: pKi of COC(=O)Nc1ccc(-c2ccnc([C@H](Cc3ccccc3)NC(=O)[C@H]3CC[C@H](CN)CC3)c2)cc1
Response given: < 4.85

Challenge: Item: C[C@H](NC(=O)[C@@H](CCc1cccc[n+]1[O-])NS(=O)(=O)Cc1ccccc1)C(=O)NCc1cc(Cl)ccc1CN
Response given: < 5.30

Challenge: Item: CC(C)c1cc(C(C)C)c(S(=O)(=O)N[C@@H](Cc2cccc(C(=N)N)c2)C(=O)N2CCCN(C(=O)CCN=C(N)N)CC2)c(C(C)C)c1
Response given: 6.09

----------
Please find below pKi measurements for Urokinase-type plasminogen activator (Homo sapiens), combined from several publications.
pKi here is simply -log10 of the concentration when that concentration is written in mol/L.

Please review the following examples before continuing.
N=C(N)c1ccc2cc(C(=O)Nc3ccccc3)cc(C3CCOC3)c2c1 (stereo unspecified)    7.00
CCNC(=O)OCC(Oc1cccc2sc(C(=N)N)cc12)c1ccccc1 (stereo unspecified)    6.82
N=C(N)c1cccc(C[C@H](NS(=O)(=O)c2cccc(NC(=O)CCN)c2)C(=O)N2CCNCC2)c1    6.06
C1=Nc2ccccc2CN1    4.30
N=C(N)NC(=O)c1nc(-c2ccc3occc3c2)c(N)nc1N    6.46
Cc1cccc(N=C(N)N)n1    3.76

Challenge: # lookup: pKi of NC(N)=Nc1ncc(Cl)c2ccc(S(=O)(=O)NCCC(=O)O)cc12
Response given: 7.24

Challenge: Item: N=C(N)NC(=O)c1nc(-c2cc3ccccc3s2)c(N)nc1N
Response given: 5.85

Challenge: Item: CN(C)CCNC(=O)C1(NS(=O)(=O)c2ccc3c(Cl)cnc(N=C(N)N)c3c2)CCCC1
Response given: 7.52

Challenge: Item: N=C(N)c1ccc2cc(C(=O)Nc3ccc4c(c3)OCO4)ccc2c1
Response given: 6.60

Challenge: Item: CCc1sc(C(=N)N)cc1-c1nc(-c2ccccc2)cs1
Response given: 6.86

Challenge: Item: N=C(N)c1ccc2cccc(NC(=O)OCc3ccccc3)c2c1
Response given: 6.80

Challenge: Item: COc1ccc(O)c(C(=O)Nc2ccc(NC(=N)N)cc2)c1
Response given: 4.70

Challenge: Item: N=C(N)Nc1ncc(Cl)cc1OCc1ccccc1
Response given: 6.04

----------
Please find below pKi measurements for Urokinase-type plasminogen activator (Homo sapiens, UniProt P00749), combined from several publications.
pKi: −log10 of the molar value.
If the reported pKi equals or exceeds 6, assign 1. If not, assign 0.

N=C(N)c1ccc2cc(/C=C(\Cl)c3ccccc3)ccc2c1    0
NC(N)=Nc1ncc(Cl)c2ccc(S(=O)(=O)NCC(=O)O)cc12    1
Cc1cc(Br)c(O)c(-c2[nH]c3ccc(C(=N)N)cc3c2Cc2ccccc2)c1    0
C=CCN1CCc2cc(NC(=O)c3ccc4cc(C(=N)N)ccc4c3)ccc2C1    1
N=C(N)NC(=O)c1nc(-c2cc3cc(F)ccc3o2)c(N)nc1N    1

Challenge: State whether the measured pKi reaches 6, counting equality as reaching it, for CCOC(=O)CC(=O)NC(CCc1cccc[n+]1[O-])C(=O)NCC(=O)NCc1cc(Cl)ccc1CN (stereo not given)
Response given: 0

Challenge: Item: CCOc1ccc(-c2cccc(S(=O)(=O)NC(Cc3cccc(C(=N)N)c3)C(=O)N3CCC(CCN)CC3)c2)cc1 (racemic)
Response given: 0

Challenge: Item: CC(C)C[C@H](NC(=O)[C@H](Cc1ccc(O)cc1)NC(=O)[C@H](CCCNC(=N)N)NC(=O)[C@H](CO)NC(=O)[C@H](Cc1ccc(O)cc1)NC(=O)[C@H](C)NC(=O)[C@@H]1CCCN1C(=O)[C@@H](N)CS)C(=O)N[C@@H](CC(=O)O)C(=O)N[C@@H](CS)C(=O)O
Response given: 1

Challenge: Item: CCC(C)/C=C/c1cc(C(=O)OC)cc2ccc(C(=N)N)cc12 (stereo not given)
Response given: 1

----------
Please find below log10 of Ki measurements for Urokinase-type plasminogen activator (Homo sapiens), combined from several publications.
Answers are given as log10 of Ki in µM.

Challenge: # lookup: log10 of Ki of N=C(N)c1ccc2cc(C3CC3c3ccccc3)cc(Nc3ncccn3)c2c1 (stereo unspecified)
Response given: -2.30

Challenge: Item: COc1ccc(-c2csc(-c3cc(C(=N)N)sc3SC)n2)cc1
Response given: 2.51

Challenge: Item: COc1ccc(-c2cccc(S(=O)(=O)NC(Cc3cccc(C(=N)N)c3)C(=O)N3CCC(CCN)CC3)c2)cc1 (racemic)
Response given: 1.00

Challenge: Item: CNCc1ccccc1NC(=O)OCC(Oc1cccc2sc(C(=N)N)cc12)c1ccccc1 (stereo unspecified)
Response given: -0.51

Challenge: Item: COCCCC(NC(=O)[C@@H]1CCCN1C(=O)[C@@H](NC(=O)OCc1ccccc1)C(c1ccccc1)c1ccccc1)B1O[C@@H]2CC3CC(C3(C)C)[C@]2(C)O1 (stereo partly specified)
Response given: 1.52

Challenge: Item: COCCC[C@@H](NC(=O)[C@@H]1CCCN1C(=O)[C@@H](Cc1ccccc1)NC(=O)OCc1ccccc1)B1O[C@@H]2CC3CC(C3(C)C)[C@]2(C)O1 (stereo in doubt; 9a)
Response given: 1.91

Challenge: Item: N=C(N)c1cccc(CC(NS(=O)(=O)c2cccc(-c3ccc4[nH]ccc4c3)c2)C(=O)N2CCC(CCN)CC2)c1 (racemic)
Response given: 0.79

Challenge: Item: CC(C)CC(=O)Nc1cc(-c2ccc(C(N)=O)cc2C(=O)O)cc(C2CC(C)(c3ccccc3)c3cc(C(=N)N)ccc3N2)c1 (single isomer, unassigned; enantiomer 2)
Response given: 0.32

Challenge: Item: N=C(N)c1cccc(CC(NS(=O)(=O)c2ccc3ccccc3c2)C(=O)N2CCCCC2)c1 (stereo unspecified)
Response given: 1.58

Challenge: Item: Cc1ccc(S(=O)(=O)NC(Cc2cccc(C(=N)N)c2)C(=O)N2CCC(C)CC2)cc1 (stereo unspecified)
Response given: 1.40

Challenge: Item: N=C(N)c1cccc(C[C@H](NS(=O)(=O)c2cccc(CCCCN)c2)C(=O)N2CCC(CCN)CC2)c1
Response given: 0.58

Challenge: Item: NC(N)=Nc1ncc(Cl)c2ccc(S(=O)(=O)N(CC(=O)O)Cc3ccccc3)cc12
Response given: -1.46

Challenge: Item: CSc1sc(C(=N)N)cc1-c1csc(Nc2ccc(N(C)C)cc2)n1
Response given: -0.51

Challenge: Item: CSc1sc(C(=N)N)cc1-c1nc(C)cs1
Response given: 2.91

Challenge: Item: CSc1sc(C(=N)N)cc1-c1nc(-c2ccc3c(c2)CCCC3)cs1
Response given: 2.16

Challenge: Item: N=C(N)Nc1nccc2c(Br)cccc12
Response given: 0.69

Challenge: Item: N=C(N)c1cccc(CC(NS(=O)(=O)c2cccc(-c3cccc(Cl)c3)c2)C(=O)N2CCC(CCN)CC2)c1 (racemic)
Response given: 1.08

Challenge: Item: N=C(N)c1ccc2cc(C3CC3c3ccccc3)cc(Br)c2c1 (stereo unspecified)
Response given: -0.21

Challenge: Item: N=C(N)c1cccc(C[C@H](NS(=O)(=O)c2ccc(C3CCCCC3)cc2)C(=O)N2CCN(C(=N)N)CC2)c1
Response given: 0.91

Challenge: Item: COc1ncc(-c2nc(C(=O)NC(=N)N)c(N)nc2N)cn1
Response given: -0.69
